Assay Procedure: Part 2 PK study: 200 mg QD versus 100 mg BID for 10 days under fed conditions
Type: in vivo, human
Condition Context: human, plasma, oral, 100 mg, 100 mg BID, fed, Day 10; mean; read-out: Vz/F
Measured Quantity: Vd/F (L)

Compound	Measured Quantity	Observed Result
c1cnc(NCc2ccc(CNc3ncccn3)cc2)nc1 [Q-122]	Vd/F	370

###

Assay Procedure: Part 2 PK study: 200 mg QD versus 100 mg BID for 10 days under fed conditions
Type: in vivo, human
Condition Context: human, plasma, oral, 100 mg, 100 mg BID, fed, Day 10; mean; read-out: Cmax
Source text: Part 2 involved analysing the PK parameters obtained following either single (QD) or twice daily (BD) dosing of a compound of formula (Ia) under fed conditions. […] For both Parts 1 and 2, samples were processed and analysed as follows. […] The analytes were separated by HPLC on a Phenomenex Synergi Polar-RP column, and the eluates monitored by an API4000 MS/MS detector in positive MRM mode. […]
Measured Quantity: Cmax (ng/mL)

c1cnc(NCc2ccc(CNc3ncccn3)cc2)nc1 1020

###

Assay Procedure: Part 2 PK study: 200 mg QD versus 100 mg BID for 10 days under fed conditions
Type: in vivo, human
Condition Context: human, plasma, oral, 200 mg, 200 mg QD, fed, Day 1; median
Measured Quantity: AUC(0-t) (µg·h/mL)

c1cnc(NCc2ccc(CNc3ncccn3)cc2)nc1 7.79

###

Assay Procedure: Part 1 PK study: single oral 200 mg dose, fed (high-fat meal) versus fasted
Type: in vivo, human
Condition Context: female, human, plasma, po, 200 mg, single oral 200 mg, fed (high-fat meal); median
Measured Quantity: AUC(0-inf)

c1cnc(NCc2ccc(CNc3ncccn3)cc2)nc1 11800 ng·h/mL

###

Assay Procedure: Part 2 PK study: 200 mg QD versus 100 mg BID for 10 days under fed conditions
Type: in vivo, human
Condition Context: human, plasma, oral, 100 mg, 100 mg BID, fed, Day 10; individual subjects; read-out: Tmax
Measured Quantity: Tmax (h)

c1cnc(NCc2ccc(CNc3ncccn3)cc2)nc1 2

###

Assay Procedure: Part 2 PK study: 200 mg QD versus 100 mg BID for 10 days under fed conditions
Format: in vivo, human
Condition Context: human, plasma, oral, 100 mg, 100 mg BID, fed, Day 10; median
Measured Quantity: AUC(0-t) (ng·h/mL)

c1cnc(NCc2ccc(CNc3ncccn3)cc2)nc1 7040

###

Assay Procedure: Part 1 PK study: single oral 200 mg dose, fed (high-fat meal) versus fasted
Format: in vivo, human
Condition Context: female, human, plasma, po, 200 mg, single oral 200 mg, fed (high-fat meal); mean; read-out: Cmax
Measured Quantity: Cmax (ng/mL)

c1cnc(NCc2ccc(CNc3ncccn3)cc2)nc1 987

###

Assay Procedure: Part 2 PK study: 200 mg QD versus 100 mg BID for 10 days under fed conditions
Assay type: in vivo, human
Condition Context: human, plasma, oral, 100 mg, 100 mg BID, fed, Day 1; mean; read-out: Cmax
Measured Quantity: Cmax (ng/mL)

Compound	Observed Result
c1cnc(NCc2ccc(CNc3ncccn3)cc2)nc1 [Q-122]	730

###

Assay Procedure: Part 2 PK study: 200 mg QD versus 100 mg BID for 10 days under fed conditions
Assay type: in vivo, human
Condition Context: human, plasma, oral, 200 mg, 200 mg QD, fed, Day 10; mean; read-out: Vz/F
Measured Quantity: Vd/F (L)

c1cnc(NCc2ccc(CNc3ncccn3)cc2)nc1 881
